# system_name: hSTING HAQ allele in THP1-Dual cells (Homo sapiens, UniProt Q86WV6, G230A/H232R/R293Q/R71H)
# Construct: a human monocyte cell line containing the hSTING HAQ allele
# Sequence (Q86WV6 whole entry R71H/G230A/H232R/R293Q): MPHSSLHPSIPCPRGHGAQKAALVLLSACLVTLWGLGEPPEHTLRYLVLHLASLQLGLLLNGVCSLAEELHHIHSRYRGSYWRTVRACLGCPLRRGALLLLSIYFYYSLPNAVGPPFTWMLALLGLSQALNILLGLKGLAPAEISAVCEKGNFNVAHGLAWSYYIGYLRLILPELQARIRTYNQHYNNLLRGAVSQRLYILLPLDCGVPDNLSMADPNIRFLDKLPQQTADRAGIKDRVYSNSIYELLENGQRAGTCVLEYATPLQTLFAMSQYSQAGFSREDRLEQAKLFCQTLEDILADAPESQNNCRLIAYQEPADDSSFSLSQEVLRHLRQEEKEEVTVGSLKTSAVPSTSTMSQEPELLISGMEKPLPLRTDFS
# assay_comment: THP1-Dual IRF-3 inducible secreted luciferase reporter assay (type I interferon activation), without digitonin
EC50 values for the compounds below.
API: value field is a number in µM; no unit string.

Consider the following illustrative entries.
compound	EC50 / µM
Nc1ncnc2c1ncn2[C@@H]1O[C@@]23CO[C@@H]1[C@@H]2O[P@](=O)(S)OC[C@@H]1C[C@@H](O[P@](=O)(S)OC3)[C@H](n2cnc3c(N)ncnc32)O1 [Compound 21a]	26.9
Nc1ncnc2c1ncn2[C@@H]1O[C@@]23CO[C@@H]1[C@@H]2O[P@@](=O)(S)OC[C@@H]1C[C@@H](O[P@](=O)(S)OC3)[C@H](n2cnc3c(N)ncnc32)O1 [Compound 21b]	77.3
Nc1nc2c(ncn2[C@@H]2O[C@@H]3CO[P@@](=O)(S)O[C@H]4[C@H]5OC[C@]4(CO[P@@](=O)(S)O[C@H]3[C@H]2O)O[C@H]5n2cnc3c(N)ncnc32)c(=O)[nH]1 [Compound 45a]	5.8
Nc1ncnc2c1ncn2[C@@H]1O[C@@H]2CO[P@@](=O)(S)O[C@H]3[C@H]4OC[C@]3(CO[P@@](=O)(S)O[C@@H]1[C@H]2F)O[C@H]4n1cnc2c(N)ncnc21 [Compound 37a]	61.2
Nc1ncnc2c1ncn2[C@@H]1O[C@@H]2CO[P@](=O)(S)O[C@H]3[C@H]4OC[C@]3(CO[P@@](=O)(S)O[C@@H]1[C@@H]2F)O[C@H]4n1cnc2c(N)ncnc21 [Compound 27b]	81
Nc1nc2c(ncn2[C@@H]2O[C@@]34CO[C@@H]2[C@@H]3O[P@](=O)(S)OC[C@H]2O[C@@H](n3cnc5c(N)ncnc53)[C@H](O)[C@@H]2O[P@](=O)(S)OC4)c(=O)[nH]1 [Compound 33a, 3′3′-RR-(A)(2′O,4′C-LNA-G)]	30.2
O=C(Nc1ncnc2c1ncn2[C@@H]1O[C@@]23CO[C@@H]1[C@@H]2O[P@](=O)(S)OC[C@@]12CO[C@@H]([C@H](n4cnc5c(NC(=O)c6ccccc6)ncnc54)O1)[C@@H]2O[P@](=O)(S)OC3)c1ccccc1 [Compound 4a]	341
Nc1ncnc2c1ncn2[C@@H]1O[C@@]23CO[C@@H]1[C@@H]2O[P@@](=O)(S)OC[C@@]12CO[C@@H]([C@H](n4cnc5c(N)ncnc54)O1)[C@@H]2O[P@](=O)(S)OC3 [Compound 5b]	19.3

Give the measured EC50 of Nc1ncnc2c1ncn2[C@@H]1O[C@@]23CO[C@@H]1[C@@H]2O[P@](=O)(S)OC[C@@]12CO[C@@H]([C@H](n4cnc5c(N)ncnc54)O1)[C@@H]2O[P@](=O)(S)OC3 [Compound 5a] . 41.6

Which EC50 is reported for this compound? Nc1ncnc2c1ncn2[C@@H]1O[C@@H]2CO[P@@](=O)(S)O[C@H]3[C@H]4OC[C@]3(CO[P@@](=O)(S)O[C@@H]1[C@@H]2F)O[C@H]4n1cnc2c(N)ncnc21 [Compound 27a] 10

----------
# system_name: hSTING WT (Homo sapiens, UniProt Q86WV6, H232R)
# Construct: DNA encoding amino acids 140-379 (amino acid numbering corresponding to Swiss Prot Q86WV6); 6xHIS (N, cleaved yes); SUMO (N, cleaved yes); made in house; host or cells: Rosetta2 (DE3) E. coli
# Sequence (Q86WV6 140-379 H232R limits assumed): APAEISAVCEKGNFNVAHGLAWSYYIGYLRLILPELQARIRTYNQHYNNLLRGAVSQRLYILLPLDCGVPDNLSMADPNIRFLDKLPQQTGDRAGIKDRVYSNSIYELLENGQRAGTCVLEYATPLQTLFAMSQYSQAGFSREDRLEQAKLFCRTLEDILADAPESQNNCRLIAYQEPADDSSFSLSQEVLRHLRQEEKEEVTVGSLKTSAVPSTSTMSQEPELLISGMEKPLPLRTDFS
# assay_comment: Differential scanning fluorometry (DSF) binding to purified STING AA140-379, wild type
# condition_notes: DSF; ligand 1 mM; 1 mg/ml STING AA140-379
The label depends only on hSTING Tm Shift WT: Y if it is at least 7 °C, N if it is smaller.

Could you tell me if the measured hSTING Tm Shift WT of Nc1ncnc2c1ncn2[C@@H]1O[C@@]23CO[C@@H]1[C@@H]2O[P@@](=O)(S)OC[C@@H]1C[C@@H](O[P@](=O)(S)OC3)[C@H](n2cnc3c(N)ncnc32)O1 [Compound 21b] reaches 7 °C or more? N

In plain terms: is recorded hSTING Tm Shift WT at least 7 °C for Nc1ncnc2c1ncn2[C@@H]1O[C@@H]2CO[P@@](=O)(S)O[C@H]3[C@H]4OC[C@]3(CO[P@@](=O)(S)O[C@@H]1[C@H]2F)O[C@H]4n1cnc2c(N)ncnc21 [Compound 37a] ? N

Reported hSTING Tm Shift WT reaches at least 7 °C for Nc1ncnc2c1ncn2[C@@H]1O[C@@H]2CO[P@](=O)(S)O[C@H]3[C@H]4OC[C@]3(CO[P@](=O)(S)O[C@@H]1[C@@H]2O)O[C@H]4n1cnc2c(N)ncnc21 [Compound 10d] ? N

Has Nc1ncnc2c1ncn2[C@@H]1O[C@@H]2CO[P@](=O)(S)O[C@H]3[C@H]4OC[C@]3(CO[P@](=O)(S)O[C@@H]1[C@H]2F)O[C@H]4n1cnc2c(N)ncnc21 [Compound 37d] a recorded hSTING Tm Shift WT greater than or equal to 7 °C? N

Decide: hSTING Tm Shift WT of O=C(Nc1ncnc2c1ncn2[C@@H]1O[C@@]23CO[C@@H]1[C@@H]2O[P@](=O)(S)OC[C@@]12CO[C@@H]([C@H](n4cnc5c(NC(=O)c6ccccc6)ncnc54)O1)[C@@H]2O[P@](=O)(S)OC3)c1ccccc1 >= 7 °C? N

Say whether Nc1ncnc2c1ncn2[C@@H]1O[C@@]23CO[C@@H]1[C@@H]2O[P@](=O)(S)OC[C@@H]1C[C@@H](O[P@](=O)(S)OC3)[C@H](n2cnc3c(N)ncnc32)O1 [Compound 21a] shows hSTING Tm Shift WT of 7 °C or more. Y

Check if hSTING Tm Shift WT >= 7 °C (inclusive). Item: Nc1nc2c(ncn2[C@@H]2O[C@@]34CO[C@@H]2[C@@H]3O[P@](=O)(S)OC[C@H]2O[C@@H](n3cnc5c(N)ncnc53)[C@H](O)[C@@H]2O[P@](=O)(S)OC4)c(=O)[nH]1 [Compound 33a, 3′3′-RR-(A)(2′O,4′C-LNA-G)] Y

Quick check, hSTING Tm Shift WT >= 7 °C? Nc1ncnc2c1ncn2[C@@H]1O[C@@H]2CO[P@@](=O)(S)O[C@H]3[C@H]4OC[C@]3(CO[P@@](=O)(S)O[C@@H]1[C@@H]2O)O[C@H]4n1cnc2c(N)ncnc21 [Compound 10a] Y

Record Nc1ncnc2c1ncn2[C@@H]1O[C@@]23CO[C@@H]1[C@@H]2O[P@@](=O)(S)OC[C@@]12CO[C@@H]([C@H](n4cnc5c(N)ncnc54)O1)[C@@H]2O[P@](=O)(S)OC3 ; criterion: hSTING Tm Shift WT no lower than 7 °C. Met? Y

Check if hSTING Tm Shift WT >= 7 °C (inclusive). Item: O=C(Nc1ncnc2c1ncn2[C@@H]1O[C@@H]2CO[P@@](=O)(S)O[C@H]3[C@H]4OC[C@]3(CO[P@](=O)(S)O[C@@H]1[C@@H]2O)O[C@H]4n1cnc2c(NC(=O)c3ccccc3)ncnc21)c1ccccc1 [Compound 11f] N

Check this compound for hSTING Tm Shift WT at or above 7 °C: Nc1ncnc2c1ncn2[C@@H]1O[C@@H]2CO[P@](=O)(S)O[C@H]3[C@H]4OC[C@]3(CO[P@@](=O)(S)O[C@@H]1[C@@H]2F)O[C@H]4n1cnc2c(N)ncnc21 [Compound 27b] Y
